Target: Tyrosine-protein kinase receptor TYRO3 (Homo sapiens)
Settings: at 1 µM
Description: GSK_PKIS: TYRO3 mean inhibition at 1 uM [Nanosyn]
This listing pairs molecules with measured inhibition.
Just the number please, in %, no unit attached.

>  <smilesStructure>
Cc1ccc(NC(=O)c2ccoc2)cc1-c1ccc(C(=O)NCC2CC2)cc1

>  <targetDesc>
Tyrosine-protein kinase receptor TYRO3 (Homo sapiens)

>  <inhibition / %>
3.21

$$$$
>  <smilesStructure>
O=C(Nc1n[nH]c2nc(-c3ccc(O)cc3)c(Br)cc12)C1CC1

>  <targetDesc>
Tyrosine-protein kinase receptor TYRO3 (Homo sapiens)

>  <inhibition / %>
41.4

$$$$
>  <smilesStructure>
CN(C)CCCNc1nccc(-c2c(-c3ccc(F)cc3)nn3cc(C(F)(F)F)ccc23)n1

>  <targetDesc>
Tyrosine-protein kinase receptor TYRO3 (Homo sapiens)

>  <inhibition / %>
1.35

$$$$
>  <smilesStructure>
CN1CCN(CCCNc2nc3ccc(Oc4ccc(NC(=O)Nc5cc(C(F)(F)F)ccc5F)cc4)cc3[nH]2)CC1

>  <targetDesc>
Tyrosine-protein kinase receptor TYRO3 (Homo sapiens)

>  <inhibition / %>
19.1

$$$$
>  <smilesStructure>
CCN(CC)Cc1ccc(Nc2nccc(-c3cnn4ncccc34)n2)cc1

>  <targetDesc>
Tyrosine-protein kinase receptor TYRO3 (Homo sapiens)

>  <inhibition / %>
18.2

$$$$

Q: Tell me its inhibition given NC(=O)c1cc(-c2ccncc2)cc(-c2ccccc2)c1N as the entry.
Result: 3.61

Q: Tell me its inhibition given O=C1NC(=O)C(c2cccc(Cl)c2)=C1Nc1ccc(Cl)c(C(=O)O)c1 as the entry.
Result: 2.5

Q: Tell me its inhibition given COc1ccc2ncn(-c3cc(O[C@H](C)c4ccccc4Cl)c(C(N)=O)s3)c2c1 as the entry.
Result: 3.45

Q: Tell me its inhibition given CCc1nccc2c1nc(-c1nonc1N)n2CC as the entry.
Result: -0.82

Q: Tell me its inhibition given NC(=O)Cc1ccccc1Oc1nccc(-c2c(-c3ccc(F)cc3)ncn2C2CCNCC2)n1 as the entry.
Result: -0.3

Q: Tell me its inhibition given C/C(Nc1ccc(S(N)(=O)=O)cc1)=C1/C(=O)Nc2ccccc21 as the entry.
Result: 16.8

Q: Tell me its inhibition given N#Cc1ccc(Oc2nccc(-c3c(-c4ccc(F)cc4)ncn3C3CCNCC3)n2)cc1 as the entry.
Result: 3.55

Q: Tell me its inhibition given Fc1ccc(-c2ncn(C3CCNCC3)c2-c2ccnc(Oc3ccc4c(c3)OCO4)n2)cc1 as the entry.
Result: 3.42

Q: Tell me its inhibition given CCc1cccc(CC)c1/C=C/c1cncc(C(=O)NC)c1 as the entry.
Result: 2.78

Q: Tell me its inhibition given O=C1Nc2ccccc2/C1=C/Nc1ccc(-n2cncn2)cc1 as the entry.
Result: 10.2

Q: Tell me its inhibition given NS(=O)(=O)c1ccc(N/N=C2\C(=O)Nc3ccc(C(=O)NCCCn4ccnc4)cc32)cc1 as the entry.
Result: 9.93

====

This listing pairs compounds with measured inhibition.
Biological target: Tyrosine-protein kinase ABL2 (Homo sapiens) (UniProt P42684)
Sequence (P42684 whole entry): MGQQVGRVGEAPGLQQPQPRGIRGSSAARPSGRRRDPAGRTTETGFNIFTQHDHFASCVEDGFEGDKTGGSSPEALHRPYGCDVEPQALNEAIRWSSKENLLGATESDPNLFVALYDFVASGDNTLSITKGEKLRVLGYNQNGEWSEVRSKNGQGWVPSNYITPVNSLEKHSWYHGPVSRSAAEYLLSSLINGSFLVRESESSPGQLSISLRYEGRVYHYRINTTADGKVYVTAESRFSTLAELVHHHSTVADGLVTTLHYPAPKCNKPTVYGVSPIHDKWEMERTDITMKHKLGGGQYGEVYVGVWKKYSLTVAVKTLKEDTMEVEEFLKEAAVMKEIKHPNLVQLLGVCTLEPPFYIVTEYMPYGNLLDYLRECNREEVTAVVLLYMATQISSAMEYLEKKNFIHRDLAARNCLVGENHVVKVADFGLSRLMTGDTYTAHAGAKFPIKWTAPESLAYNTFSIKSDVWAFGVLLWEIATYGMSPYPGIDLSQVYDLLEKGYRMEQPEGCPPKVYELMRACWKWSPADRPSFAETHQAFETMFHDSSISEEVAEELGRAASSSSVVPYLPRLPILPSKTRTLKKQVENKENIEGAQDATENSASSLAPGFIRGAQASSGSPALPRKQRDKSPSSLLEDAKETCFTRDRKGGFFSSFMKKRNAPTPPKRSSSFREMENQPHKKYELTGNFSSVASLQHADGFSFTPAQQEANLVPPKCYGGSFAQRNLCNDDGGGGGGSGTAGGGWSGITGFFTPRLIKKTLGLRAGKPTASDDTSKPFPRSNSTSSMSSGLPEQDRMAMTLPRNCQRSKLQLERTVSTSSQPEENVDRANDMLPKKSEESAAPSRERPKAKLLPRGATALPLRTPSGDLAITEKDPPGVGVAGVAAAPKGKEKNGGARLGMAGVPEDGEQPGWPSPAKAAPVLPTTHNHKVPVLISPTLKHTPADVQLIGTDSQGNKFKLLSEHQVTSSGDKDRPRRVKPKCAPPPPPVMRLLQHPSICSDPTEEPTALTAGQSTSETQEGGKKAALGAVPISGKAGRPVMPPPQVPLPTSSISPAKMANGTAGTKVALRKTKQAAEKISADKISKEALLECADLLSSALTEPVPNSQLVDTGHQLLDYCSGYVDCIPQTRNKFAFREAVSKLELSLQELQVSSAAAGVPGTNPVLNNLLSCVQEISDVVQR
Conditions: at 1 µM
Description: GSK_PKIS: ARG mean inhibition at 1 uM [Nanosyn]
Just the number please, in %, no unit attached.

>  <smilesStructure>
CNC(=O)c1cncc(/C=C/c2c(C)cccc2C)c1

>  <measurementName>
inhibition

>  <valueMeasured>
51.3

$$$$

Q: Return reported inhibition for target or system Tyrosine-protein kinase ABL2 (Homo sapiens) (UniProt P42684), item COc1cc2ncn(-c3cc(OCc4ccccc4C(F)(F)F)c(C(C)=O)s3)c2cc1OC .
Result: 10.4

Q: Return reported inhibition for target or system Tyrosine-protein kinase ABL2 (Homo sapiens) (UniProt P42684), item O=C1Nc2ccc(I)cc2C1=Cc1cc(Br)c(O)c(Br)c1 .
Result: 6.48

====

Biological target: cAMP-dependent protein kinase catalytic subunit alpha (Homo sapiens) (UniProt P17612)
Conditions: at 0.1 µM
This listing pairs compounds with measured inhibition.
Your reply should be a number followed by the unit it is expressed in.

Observe how each entry below is paired with its result.
>  <smilesStructure>
Fc1ccc(-c2ncn(C3CCNCC3)c2-c2ccnc(Oc3ccc(Oc4ccccc4)cc3)n2)cc1

>  <targetDesc>
cAMP-dependent protein kinase catalytic subunit alpha (Homo sapiens) (UniProt P17612)

>  <measurementName>
inhibition

>  <valueMeasured>
4.74%

$$$$
>  <smilesStructure>
CS(=O)(=O)CCNCc1ccc(-c2ccc3ncnc(Nc4ccc(OCc5ccccc5)c(Br)c4)c3c2)o1

>  <targetDesc>
cAMP-dependent protein kinase catalytic subunit alpha (Homo sapiens) (UniProt P17612)

>  <measurementName>
inhibition

>  <valueMeasured>
-1.58%

$$$$
>  <smilesStructure>
COc1cc2ncn(-c3cc(OCc4ccccc4C(F)(F)F)c(C(C)=O)s3)c2cc1OC

>  <targetDesc>
cAMP-dependent protein kinase catalytic subunit alpha (Homo sapiens) (UniProt P17612);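 also: reported value is the mean percent inhibition of PKA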

>  <measurementName>
inhibition

>  <valueMeasured>
1.04%

$$$$

Q: Tell me its inhibition given C[C@@H](Oc1cc(-n2cnc3ccc(OC4CCN(C)CC4)cc32)sc1C(N)=O)c1ccccc1Cl as the entry.
Result: -1.89%

Q: Tell me its inhibition given NS(=O)(=O)c1ccc(Nc2cc(-c3ccc(O)c(F)c3)n[nH]2)cc1 as the entry.
Result: -2.2%

Q: Tell me its inhibition given COC(=O)Nc1nc2ccc(Sc3ccc(NC(=O)Nc4cc(C(F)(F)F)ccc4F)cc3)cc2[nH]1 as the entry.
Result: -0.04%

Q: Tell me its inhibition given NS(=O)(=O)c1ccc(N/N=C2\C(=O)Nc3ccc(C(=O)NCCCn4ccnc4)cc32)cc1 as the entry.
Result: 2.3%

Q: Tell me its inhibition given N#Cc1ccc(Oc2nccc(-c3c(-c4ccc(F)cc4)ncn3C3CCNCC3)n2)cc1 as the entry.
Result: 2.63%

Q: Tell me its inhibition given COc1cc(Nc2ncc3c(C)nc(-c4cccc(C(F)(F)F)c4)n3n2)cc(OC)c1OC as the entry.
Result: 2.66%

Q: Tell me its inhibition given Fc1ccc(-c2ncn(C3CCNCC3)c2-c2ccnc(Oc3ccc(F)c(F)c3)n2)cc1 as the entry.
Result: -0.98%

Q: Tell me its inhibition given O=C(Nc1n[nH]c2nc(-c3ccc(O)cc3)c(Br)cc12)C1CC1 as the entry.
Result: 2.91%

Q: Tell me its inhibition given COc1cccc(-n2cnc3c(N/N=C/c4ccncc4)ncnc32)c1 as the entry.
Result: -1.92%

Q: Tell me its inhibition given CCc1cccc(CC)c1/C=C/c1cncc(C(=O)NC)c1 as the entry.
Result: 1.89%

Q: Tell me its inhibition given Cc1ccc(C(=O)NC(C)C)cc1-c1ccc(C(=O)NCC2CC2)cc1 as the entry.
Result: -2.08%

Q: Tell me its inhibition given CCc1ccc(Oc2nccc(-c3c(-c4ccc(F)cc4)ncn3C3CCNCC3)n2)cc1 as the entry.
Result: 25.9%

Q: Tell me its inhibition given O=C(Nc1n[nH]c2cc(-c3ccccc3)ccc12)C1CC1 as the entry.
Result: 1.89%

Q: Tell me its inhibition given Fc1ccc(-c2ncn(C3CCNCC3)c2-c2ccnc(Oc3ccc4c(c3)OCO4)n2)cc1 as the entry.
Result: 6.76%

Q: Tell me its inhibition given COc1ccc2ncn(-c3cc(O[C@H](C)c4ccccc4Cl)c(C(N)=O)s3)c2c1 as the entry.
Result: -1.47%

Q: Tell me its inhibition given COc1ccc(-c2ccc3c(NC(=O)C4CC4)n[nH]c3n2)cc1 as the entry.
Result: 1.31%

====

Tested on: Mast/stem cell growth factor receptor Kit (Homo sapiens), P10721 [V560G]
Sequence (P10721 whole entry V560G): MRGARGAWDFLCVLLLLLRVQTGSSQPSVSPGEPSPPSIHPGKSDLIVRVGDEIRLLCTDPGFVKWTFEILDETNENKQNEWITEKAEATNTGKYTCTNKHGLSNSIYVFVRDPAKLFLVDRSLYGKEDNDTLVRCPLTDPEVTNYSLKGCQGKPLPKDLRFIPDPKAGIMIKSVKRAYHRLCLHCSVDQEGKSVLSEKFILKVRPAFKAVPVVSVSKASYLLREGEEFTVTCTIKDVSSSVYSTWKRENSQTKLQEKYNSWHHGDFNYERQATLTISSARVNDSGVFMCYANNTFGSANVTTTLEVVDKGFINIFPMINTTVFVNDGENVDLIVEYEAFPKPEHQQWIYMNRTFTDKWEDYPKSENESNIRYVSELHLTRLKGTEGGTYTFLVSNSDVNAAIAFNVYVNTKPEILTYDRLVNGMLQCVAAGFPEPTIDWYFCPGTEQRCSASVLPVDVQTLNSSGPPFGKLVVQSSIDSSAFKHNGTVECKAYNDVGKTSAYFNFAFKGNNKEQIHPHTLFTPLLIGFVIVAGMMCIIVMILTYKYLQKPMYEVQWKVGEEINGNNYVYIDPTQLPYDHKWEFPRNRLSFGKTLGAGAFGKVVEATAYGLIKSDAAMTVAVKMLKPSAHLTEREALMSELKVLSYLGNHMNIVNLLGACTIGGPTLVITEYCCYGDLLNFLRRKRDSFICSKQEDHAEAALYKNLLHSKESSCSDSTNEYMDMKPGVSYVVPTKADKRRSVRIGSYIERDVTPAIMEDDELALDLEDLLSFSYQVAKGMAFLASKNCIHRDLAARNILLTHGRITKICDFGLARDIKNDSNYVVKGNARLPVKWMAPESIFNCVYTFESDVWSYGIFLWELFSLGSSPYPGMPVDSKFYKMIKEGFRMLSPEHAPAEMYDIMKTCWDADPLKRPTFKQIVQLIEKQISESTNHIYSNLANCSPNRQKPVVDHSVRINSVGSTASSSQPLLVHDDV
Settings: at 1 µM
This listing pairs compounds with measured inhibition.
Just the number please, in %, no unit attached.

>  <compound>
c1ccc(-c2n[nH]cc2-c2ccnc(-c3ccc(OCCN4CCOCC4)cc3)c2)nc1

>  <targetDesc>
Mast/stem cell growth factor receptor Kit (Homo sapiens), P10721 [V560G]

>  <measurementName>
inhibition

>  <unit>
%

>  <valueMeasured>
10.4

$$$$

Q: Tell me its inhibition given COc1ccc(C2=C(N3CCc4ccccc43)C(=O)NC2=O)cc1 as the entry.
Result: 4.55

Q: Tell me its inhibition given COc1cc2ncn(-c3cc(OCCc4ccccc4)c(C(N)=O)s3)c2cc1OC as the entry.
Result: -0.35

Q: Tell me its inhibition given CN(c1ccc(NC(=O)Nc2c(Cl)cccc2Cl)cc1)c1ccnc(Nc2cccc(CS(C)(=O)=O)c2)n1 as the entry.
Result: 81.5

Q: Tell me its inhibition given Fc1ccc(-c2ncn(C3CCNCC3)c2-c2ccnc(Oc3ccc4c(c3)OCO4)n2)cc1 as the entry.
Result: -0.53

Q: Tell me its inhibition given CNC(=O)c1cncc(/C=C/c2c(C)cccc2C)c1 as the entry.
Result: 17.2

Q: Tell me its inhibition given Nc1nccc(-c2c(-c3ccc(F)cc3)ncn2C2CCC(O)CC2)n1 (configuration not stated) as the entry.
Result: 5.14

Q: Tell me its inhibition given C/C(Nc1ccc(S(N)(=O)=O)cc1)=C1/C(=O)Nc2ccccc21 as the entry.
Result: 22.4

Q: Tell me its inhibition given COc1ccc2cc(-c3c(-c4ccncc4)nc(-c4ccc([S+](C)[O-])cc4C)n3C)ccc2c1 (configuration not stated) as the entry.
Result: -0.3
